experimental_target: T1, E. coli expressed VEGF109 (human, UniProt P15692 207-315)
T1 construct: also called hVEGF109
T1 sequence: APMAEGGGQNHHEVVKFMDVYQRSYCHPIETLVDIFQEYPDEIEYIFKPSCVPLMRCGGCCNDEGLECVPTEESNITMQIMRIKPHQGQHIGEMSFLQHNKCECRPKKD
method: SPR Biacore 3000, periplasmic extract over VEGF109-coated CM5 chip
measured_endpoint: koff (s⁻¹)
// return numeric value only (unit: s⁻¹, not printed)

binder | measured_endpoint | endpoint_value
PVEGFPMP42C7 (VHH, tested as periplasmic extract; not shown: C-terminal c-myc tag and (His)6 tag from the vector) VHH: EVQLVESGGGLVQAGGALRLSCAASGRTFETYRMGWFRQAPGKEREFVALINWSSGTTIYADSVKGRFTISGDNAKDTVYLEMNSLKPEDTAVYYCAVGRRWSGSYYSALAYQYWGKGTQVTVSS | koff | 0.00061
PVEGFPMP42H5 (VHH, tested as periplasmic extract; not shown: C-terminal c-myc tag and (His)6 tag from the vector) VHH: EVQLVESGGGLVQAGGSLRLSCTASGRALDTYTVTWFRQTPGKEREFVASNRWNAKPYVTDSVKGRFTISRDNAKNTVYLQMNSLKPEDTAVYYCAADLTTWADGPYRYWGQGTQVTVSS | koff | 0.000315
PVEGFPMP42E3 (VHH, tested as periplasmic extract; not shown: C-terminal c-myc tag and (His)6 tag from the vector) VHH: EVQLVESGGGLVQAGGALRLSCAASGRTFETYRMGWFRQAPGKEREFVALINWSSGTTIYADSVKGRFTISGDNAKDTVYLEMNSLKPEDTAVYYCAVGRRWSGSYYSALAYQYWGQGTQVTVSS | koff | 0.000689
PVEGFPMP42D10 (VHH, tested as periplasmic extract; not shown: C-terminal c-myc tag and (His)6 tag from the vector) VHH: EVQLVESGGGLVQAGGALRLSCAASGRTFETYRMGWFRQAPGKEREFVALINWSSGITVYLDSVKGRFTISGDNAKDTVYLEMNSLKPEDTAVYYCAVGRAWSGSYYSALAYQYWGQGTQVTVSS | koff | 0.00411
PVEGFPMP42A3 (VHH, tested as periplasmic extract; not shown: C-terminal c-myc tag and (His)6 tag from the vector) VHH: EVPMVESGGGLVQAGGSLRLSCAASGRTFSGVDVAWFRQAPGKEREFVAALAWSGIRTYYAVSVKGRFTISRGDPNDTVYLQMTSLKPEDTAVYYCATGRASRTSDYYTDRIYDSWGQGAQVTVSS | koff | 0.00284

// lookup koff for PVEGFPMP42C5 (VHH, tested as periplasmic extract; not shown: C-terminal c-myc tag and (His)6 tag from the vector) VHH: KVQLVESGGGLVQAGGSLRLSCAASGRALDTYTVTWFRQTPGKEREFVASIRWNAKPYTTDSVKGRFTISRDNAKNTVYLQMNSLKPEDTAIYYCAADLTTWADGPYRYWGQGTQVTVSS
0.000448

Item PVEGFPMP42D7 (VHH, tested as periplasmic extract; not shown: C-terminal c-myc tag and (His)6 tag from the vector) VHH: EVQLVESGGGLVQAGGALRPSCAASGRTFETYRMGWFRQAPGKEREFVALINWSSGTTVYADSVKGRFTISGDNAKDTVYLEMNSLKPEDTAVYYCAVGRRWSGSYYSALAYQYWGQGTQVTVSS has what recorded koff?
0.000176

# koff lookup, item PVEGFPMP42B10 (VHH, tested as periplasmic extract; not shown: C-terminal c-myc tag and (His)6 tag from the vector) VHH: EVQLVESGGGLVQAGGSLRLSCTASGRALDTYTVTWFRQTPGKEREFVASNRWNAKPYTTDSVKGRFTISRDNAKNTVYLQMNSLKPEDTAVYYCAADLTTWADGPYRYWGQGTQVTVSS
0.000227

# query: koff of entry PVEGFPMP42E4 (VHH, tested as periplasmic extract; not shown: C-terminal c-myc tag and (His)6 tag from the vector) VHH: EVQLMESGGGLVQAGGSLRLSCAVSGRTFESYRMGWFRQAPGKEREFVSLINWSSGKTIYADSVKGRFTISGDNAKDTVYLEMNSLKPEDTAVYYCAVGRAWSGSYYSALAYQYWGQGTQVTVSS
0.00774

I am curious: what koff value has been reported for PVEGFPMP42G5 (VHH, tested as periplasmic extract; not shown: C-terminal c-myc tag and (His)6 tag from the vector) VHH: EVHLVESGGGLVQAGGSLRLSCAASGRALDTYTVTWFRQTPGKTREFVASVRWNAKPYTTDSVKGRFTISRDNAKNTVYLQMNSLKPEDTAVYYCAADPTTWADGPYRYWGQGTQVTVSS ?
0.000251
